- System: Klebsiella
- assay-remarks: Antibacterial activity against Klebsiella at 50 ug after 18 hr by Kirby-Bauer's disk diffusion assay
- Assay type: functional
- cond: read-out: DIZ

compound-string: COc1ccc(NCc2nn3c(=O)c4cnn(-c5ccccc5)c4nc3s2)cc1
measurement-units: mm
zone of inhibition at 50 µg/disc: 14
--
compound-string: CCCCCCNCc1nn2c(=O)c3cnn(-c4ccccc4)c3nc2s1
measurement-units: mm
zone of inhibition at 50 µg/disc: 11.5
--
compound-string: CNCc1nn2c(=O)c3cnn(-c4ccccc4)c3nc2s1
measurement-units: mm
zone of inhibition at 50 µg/disc: 11.5
--
compound-string: O=c1c2cnn(-c3ccccc3)c2nc2sc(CNCc3ccco3)nn12
measurement-units: mm
zone of inhibition at 50 µg/disc: 13
--
compound-string: CCNCc1nn2c(=O)c3cnn(-c4ccccc4)c3nc2s1
measurement-units: mm
zone of inhibition at 50 µg/disc: 12
--
compound-string: O=c1c2cnn(-c3ccccc3)c2nc2sc(CNc3ccccc3)nn12
measurement-units: mm
zone of inhibition at 50 µg/disc: 12.5

###

- Test system: Klebsiella
- assay-remarks: Antibacterial activity against Klebsiella at 50 ug after 18 hr by Kirby-Bauer's disk diffusion assay
- Type: functional
- cond: read-out: DIZ
assay-metric: zone of inhibition at 50 µg/disc (mm)

compound-string: Cc1cccc(NCc2nn3c(=O)c4cnn(-c5ccccc5)c4nc3s2)c1
endpoint-result: 12
//
compound-string: O=c1c2cnn(-c3ccccc3)c2nc2sc(CN3CCOCC3)nn12
endpoint-result: 14.5
//
compound-string: CC1(C)S[C@@H]2[C@H](NC(=O)[C@H](N)c3ccccc3)C(=O)N2[C@H]1C(=O)O
endpoint-result: 24.5

###

- Tested on: Escherichia coli
- assay-remarks: Antibacterial activity against Escherichia coli at 50 ug after 18 hr by Kirby-Bauer's disk diffusion assay
- Type: functional
- cond: read-out: DIZ

compound: CCNCc1nn2c(=O)c3cnn(-c4ccccc4)c3nc2s1
measurement-units: mm
zone of inhibition at 50 µg/disc: 10.5

compound: COc1ccc(NCc2nn3c(=O)c4cnn(-c5ccccc5)c4nc3s2)cc1
measurement-units: mm
zone of inhibition at 50 µg/disc: 11.5

compound: Cc1cccc(NCc2nn3c(=O)c4cnn(-c5ccccc5)c4nc3s2)c1
measurement-units: mm
zone of inhibition at 50 µg/disc: 9.5

compound: CC1(C)S[C@@H]2[C@H](NC(=O)[C@H](N)c3ccccc3)C(=O)N2[C@H]1C(=O)O [AMPICILLIN]
measurement-units: mm
zone of inhibition at 50 µg/disc: 18.5

compound: CNCc1nn2c(=O)c3cnn(-c4ccccc4)c3nc2s1
measurement-units: mm
zone of inhibition at 50 µg/disc: 11

compound: CCCCCCNCc1nn2c(=O)c3cnn(-c4ccccc4)c3nc2s1
measurement-units: mm
zone of inhibition at 50 µg/disc: 11

compound: O=c1c2cnn(-c3ccccc3)c2nc2sc(CN3CCOCC3)nn12
measurement-units: mm
zone of inhibition at 50 µg/disc: 9

compound: O=c1c2cnn(-c3ccccc3)c2nc2sc(CNc3ccccc3)nn12
measurement-units: mm
zone of inhibition at 50 µg/disc: 10.5

compound: O=c1c2cnn(-c3ccccc3)c2nc2sc(CNCc3ccco3)nn12
measurement-units: mm
zone of inhibition at 50 µg/disc: 8.5
